# Method: Inhibition of HIV1 His6-tagged integrase-LEDGF/p75 (unknown origin) interaction incubated for 30 mins followed by LEDGF/p75 addition measured after 4 hrs
Listing of entries alongside the reported IC50.
Quantity kind: IC50 (µM)

{"columns": ["Molecule", "Value relation sign", "Value observed"],
 "data": [
  ["Cc1ccc2[nH]c(=O)c(CC(=O)O)c(-c3ccccc3)c2c1", "=", 52.5],
  ["CCc1cc(C(=O)Cc2ccc3c(c2)OCCO3)c(O)cc1OCC(=O)O", ">", 100],
  ["O=C(O)c1cc(N(Cc2ccccc2O)Cc2ccccc2O)ccc1O", "=", 94.1],
  ["COc1ccc(/C=C2/SC(=S)N(C(C(=O)O)C(C)C)C2=O)cc1 (racemic)", "=", 41.3],
  ["Cc1c(OC(C(=O)O)c2ccccc2)ccc2c(-c3ccccc3)cc(=O)oc12 (racemic)", "=", 37.2],
  ["CCCC(C(=O)O)c1cnc2ccc(Cl)cc2c1-c1ccccc1 (racemic)", "=", 1.37],
  ["O=C(O)Cc1c(-c2ccccc2)c2cc(Cl)ccc2[nH]c1=O", "=", 12.2]
]}
